- System: LOX IMVI
- Procedure text: NCI tumour cell line growth inhibition, 48 h
Calls of active or inactive are those of the source. Rule as the data show it: active = GI50 up to about 1.1 µM and inactive = higher.
I'd appreciate it if you could supply GI50 values for the items below.

# annotated cases, reported GI50 shown
- Compound: "COc1ccc(/C=C2\\CCC(C)/C(=C\\c3ccc(OC)c(OC)c3)C2=O)cc1OC (configuration not stated)"
  GI50: "4.33 µM (inactive)"
- Compound: "CN(C)/C=N\\c1cc[nH]c(=O)n1"
  GI50: "> 100 µM (inactive)"
- Compound: "COc1ccc(-c2ncn(C[Si](C)(C)C)c2-c2ccc(OC)cc2)cc1"
  GI50: "4.89 µM (inactive)"

Below are 3 compounds. Give each one its GI50.
1. COc1cccc(CC(C)N)c1 (configuration not stated)
2. O=C(CCn1[nH]c(=O)c(Cl)c(Cl)c1=O)NNC(=O)C[n+]1ccccc1
3. COc1cc2c(/C=C3/C(=O)Nc4cc(C)c(O)cc43)c(Cl)[nH]c2cc1C

(A)
1: > 100 µM (inactive); 2: > 100 µM (inactive); 3: 5.61 µM (inactive)

Below are 6 compounds. Give each one its GI50.
1. O=c1c(O)c(-c2ccccc2)n(O)c2ccc(Cl)cc12
2. CCOC(=O)c1cc2c([N+](=O)[O-])c(NC(C)=O)ccc2s1
3. c1cc(CN2CCNCCNCCNCC2)cc(CN2CCNCCNCCNCC2)c1
4. COc1ccccc1C1C2=C(COC2=O)OC(C)(C)Oc2cc3c(cc21)OCO3 (configuration not stated)
5. COC(=O)/C(=C/c1ccc(OC)cc1)C(C(=O)O)=C1CCCCC1
6. CC(C)CC(NC(=O)OCc1ccccc1)C(=O)NCCCCC(N)C(=O)NC(CCCCNC(=O)C(CC(C)C)NC(=O)OCc1ccccc1)C(=O)NC(CCCCNC(=O)C(CC(C)C)NC(=O)OCc1ccccc1)C(=O)NC(CCCCNC(=O)C(CC(C)C)NC(=O)OCc1ccccc1)C(=O)NC(CCCCNC(=O)C(CC(C)C)NC(=O)OCc1ccccc1)C(=O)NC(CCCCNC(=O)C(CC(C)C)NC(=O)OCc1ccccc1)C(=O)O (configuration not stated)

(A)
1: 11.4 µM (inactive); 2: 60.4 µM (inactive); 3: > 100 µM (inactive); 4: 5.16 µM (inactive); 5: > 100 µM (inactive); 6: 88.5 µM (inactive)

Below are 2 compounds. Give each one its GI50.
1. Cc1cc2c(c(C(N)=O)c1C)-c1cccc(Cl)c1C2=O
2. CC(OC(C)(C)C)[C@H](NC(=O)OC(C)(C)C)C(=O)O (some centres not stated)

(A)
["> 100 µM (inactive)", "> 100 µM (inactive)"]

Below are 6 compounds. Give each one its GI50.
1. Cc1ccc(NC(=O)CC2C(=O)Nc3ccccc3S2(=O)=O)cc1C (configuration not stated)
2. O=C(CC1(O)C(=O)Nc2ccccc21)c1ccc(F)cc1 (configuration not stated)
3. C=CCc1cccc2cc(C(N)=O)c(=N)oc12
4. CC(=O)Oc1ccc2c(c1)C(=O)c1nc(C)c(C)nc1C2=O
5. C[C@@H]1C(=O)CC2C(C)(C)CCC[C@]2(C)[C@@]12CC[C@]1(C=COC1)O2 (some centres not stated)
6. CC1C2C=CC1C(c1c3ccc(=O)c(O)c-3oc3c(O)c(O)ccc13)C2C(=O)O (configuration not stated)

(A)
["> 100 µM (inactive)", "> 100 µM (inactive)", "84.7 µM (inactive)", "39.4 µM (inactive)", "33.4 µM (inactive)", "20.9 µM (inactive)"]

Below are 2 compounds. Give each one its GI50.
1. c1cc2nnc1SCCCSc1ccc(nn1)SCCCS2
2. BrCC(Br)(c1ccccc1)c1ccccc1-c1cc(-c2ccccc2)cc(-c2ccccc2)n1 (configuration not stated)

(A)
1. > 21.9 µM (inactive)
2. 2.29 µM (inactive)
